Origin of measurements: patent US20050101595A1

TARGET UNDER TEST: CDK2/Cyclin A (Homo sapiens, UniProt P24941)
PROTOCOL DESCRIPTION: Inhibition of CDK2/Cyclin A Retinoblastoma Kinase Activity
Format: biochemical
MEASUREMENT CONTEXT: 0.03 μM compound; Table 3
Experimental: Cyclin-dependent kinase activity was measured by quantifying the enzyme-catalyzed, time-dependent incorporation of radioactive phosphate from [^32P]ATP or [^33P]ATP into a protein substrate. […] The phosphorylated substrate was then captured on a nitrocellulose or phosphocellulose membrane using a 96-well filtration manifold, and unincorporated radioactivity was removed by repeated washing with 0.85% phosphoric acid. Radioactivity was quantified by exposing the dried membranes to a phosphorimager. […]
RECORDED ENDPOINT: CDK2 % Inhibition at 0.03 μM (%)
Respond numerically; units are % and should not be typed.

Q: GET /values?readout=CDK2 % Inhibition at 0.03 μM&item= N#Cc1ccc(S(=O)(=O)N2CCC(Nc3nc(N)c(C(=O)c4c(F)cccc4F)s3)CC2)c(Cl)c1
Result: 57

Q: Can you look up the measured CDK2 % Inhibition at 0.03 μM of CCCCOc1ccc(C(C)(C)CC(C)(C)C)cc1S(=O)(=O)N1CCC(Nc2nc(N)c(C(=O)c3c(F)cccc3F)s2)CC1 for me?
Result: −28

Q: Which CDK2 % Inhibition at 0.03 μM is listed for COc1ccc(Cl)cc1S(=O)(=O)N1CCC(Nc2nc(N)c(C(=O)c3c(F)cccc3F)s2)CC1 ?
Result: 21

Q: I have this compound here, Nc1nc(NC2CCN(S(=O)(=O)c3ccccc3F)CC2)sc1C(=O)c1c(F)cccc1F , and I need its recorded CDK2 % Inhibition at 0.03 μM.
Result: 58
